Assay: Biodistribution of 14C-CA4P following intravitreal injection
Assay type: in vivo, New Zealand rabbits
Conditions: retina; 100 mg/ml intravitreal
observed-property: Cmax

Would you kindly share the measured Cmax for COc1ccc(/C=C\c2cc(OC)c(OC)c(OC)c2)cc1OP(=O)([O-])[O-].[Na+].[Na+] [CA4P, combretastatin A4 disodium phosphate] ?
10700 µM

* * *

Test: Biodistribution of 14C-CA4P following periocular injection
Type: in vivo, New Zealand rabbits
Settings: choroid; 100 mg/ml periocular
observed-property: Cmax (µM)
Express it in µM; write the number only.

Value lookup for Cmax; key = COc1ccc(/C=C\c2cc(OC)c(OC)c(OC)c2)cc1OP(=O)([O-])[O-].[Na+].[Na+] [CA4P, combretastatin A4 disodium phosphate]
1040

* * *

Test: Biodistribution of 14C-CA4P following sub-Tenon's injection
Format: in vivo, New Zealand rabbits
Conditions: vitreous; 10 mg/ml sub-Tenon's
observed-property: Cmax (nM)
Write the answer as a number in nM, unit excluded.

// lookup Cmax for COc1ccc(/C=C\c2cc(OC)c(OC)c(OC)c2)cc1OP(=O)([O-])[O-].[Na+].[Na+] [CA4P, combretastatin A4 disodium phosphate]
130

* * *

Test: Biodistribution of 14C-CA4P following subconjunctival injection
Assay type: in vivo, New Zealand rabbits
Details: retina; 10 mg/ml subconjunctival
observed-property: Cmax (µM)
Provide only the numeric value, understood in µM.

Name the reported Cmax value associated with the compound COc1ccc(/C=C\c2cc(OC)c(OC)c(OC)c2)cc1OP(=O)([O-])[O-].[Na+].[Na+] [CA4P, combretastatin A4 disodium phosphate]
39.6

* * *

Assay: Biodistribution of 14C-CA4P following topical administration of a gel
Type: in vivo, New Zealand rabbits
Conditions: aqueous humor; 1% topical gel
observed-property: Cmax (nM)
Please state the figure in nM; there is no need to write the unit.

Returns the measured Cmax for the input molecule. Input: COc1ccc(/C=C\c2cc(OC)c(OC)c(OC)c2)cc1OP(=O)([O-])[O-].[Na+].[Na+] [CA4P, combretastatin A4 disodium phosphate]
2400

* * *

Assay: Biodistribution of 14C-CA4P following periocular injection
Type: in vivo, New Zealand rabbits
Details: plasma; 10 mg/ml periocular
observed-property: Cmax (nM)
# number only, unit nM dropped from output

So what's the measured Cmax for this one? COc1ccc(/C=C\c2cc(OC)c(OC)c(OC)c2)cc1OP(=O)([O-])[O-].[Na+].[Na+] [CA4P, combretastatin A4 disodium phosphate]
790

* * *

Experiment: Biodistribution of 14C-CA4P following subconjunctival injection
Assay type: in vivo, New Zealand rabbits
Conditions: choroid; 100 mg/ml subconjunctival
observed-property: Cmax (µM)
Kindly answer with a numeric value in µM, unit omitted.

Field request: Cmax | item: COc1ccc(/C=C\c2cc(OC)c(OC)c(OC)c2)cc1OP(=O)([O-])[O-].[Na+].[Na+] [CA4P, combretastatin A4 disodium phosphate]
908

* * *

Experiment: Biodistribution of 14C-CA4P following topical administration of a solution formulation
Type: in vivo, New Zealand rabbits
Details: aqueous humor; 3% topical solution
observed-property: Cmax (nM)
Give the number; nM is assumed, so skip it.

Which Cmax value belongs to COc1ccc(/C=C\c2cc(OC)c(OC)c(OC)c2)cc1OP(=O)([O-])[O-].[Na+].[Na+] [CA4P, combretastatin A4 disodium phosphate] ?
1900

* * *

Test: Biodistribution of 14C-CA4P following sub-Tenon's injection
Format: in vivo, New Zealand rabbits
Details: plasma; 1 mg/ml sub-Tenon's
observed-property: Cmax (nM)
# value in nM; strip the unit string

Consider the molecule shown here: COc1ccc(/C=C\c2cc(OC)c(OC)c(OC)c2)cc1OP(=O)([O-])[O-].[Na+].[Na+] [CA4P, combretastatin A4 disodium phosphate] What is its recorded Cmax?
70

* * *

Assay: Biodistribution of 14C-CA4P following periocular injection
Assay type: in vivo, New Zealand rabbits
Settings: vitreous; 100 mg/ml periocular
observed-property: Cmax (µM)
Reply with just the number (in µM).

Requested read-out: Cmax. Entry: COc1ccc(/C=C\c2cc(OC)c(OC)c(OC)c2)cc1OP(=O)([O-])[O-].[Na+].[Na+] [CA4P, combretastatin A4 disodium phosphate]
3.35

* * *

Assay: Biodistribution of 14C-CA4P following periocular injection
Assay type: in vivo, New Zealand rabbits
Conditions: plasma; 1 mg/ml periocular
observed-property: Cmax (µM)
Entry rule: numbers only, all in µM.

What value of measured Cmax is listed for COc1ccc(/C=C\c2cc(OC)c(OC)c(OC)c2)cc1OP(=O)([O-])[O-].[Na+].[Na+] [CA4P, combretastatin A4 disodium phosphate] ?
0.07

* * *

Experiment: Biodistribution of 14C-CA4P following periocular injection
Assay type: in vivo, New Zealand rabbits
Settings: choroid; 10 mg/ml periocular
Experimental: ^14C-CA4P (OXiGENE Inc., Watertown, Mass.) was resuspended in 100 ul volume of saline solution and injected with a 30 G needle into the right eyes of anesthesized male New Zealand rabbits (4 months old, 1.8-2.5 kg, n=3 per sample). Three different concentrations of ^14C-CA4P were tested (1, 10, 100 mg/ml) corresponding to doses of 1, 5, and 5 uCi of applied radioactivity respectively. A blank control group was also included. Rabbits were anaesthetized at 1, 6, 24, and 48 hours for blood sampling. […]
observed-property: Cmax (µM)
# number only, unit µM dropped from output

I'd like to know its Cmax. The compound in question is COc1ccc(/C=C\c2cc(OC)c(OC)c(OC)c2)cc1OP(=O)([O-])[O-].[Na+].[Na+] [CA4P, combretastatin A4 disodium phosphate]
74.5

* * *

Experiment: Biodistribution of 14C-CA4P following intravitreal injection
Type: in vivo, New Zealand rabbits
Settings: vitreous; 10 mg/ml intravitreal
observed-property: Cmax (µM)
Respond with the bare value in µM.

Which Cmax reading was recorded for the compound COc1ccc(/C=C\c2cc(OC)c(OC)c(OC)c2)cc1OP(=O)([O-])[O-].[Na+].[Na+] [CA4P, combretastatin A4 disodium phosphate] ?
757

* * *

Assay: Biodistribution of 14C-CA4P following subconjunctival injection
Format: in vivo, New Zealand rabbits
Details: cornea; 0.1 mg/ml subconjunctival
observed-property: Cmax
Give me the value, and tack the unit on after it.

Data request, read-out Cmax, for COc1ccc(/C=C\c2cc(OC)c(OC)c(OC)c2)cc1OP(=O)([O-])[O-].[Na+].[Na+] [CA4P, combretastatin A4 disodium phosphate]
1500 nM

* * *

Assay: Biodistribution of 14C-CA4P following intravitreal injection
Type: in vivo, New Zealand rabbits
Conditions: cornea; 1 mg/ml intravitreal
observed-property: Cmax (µM)
Give just the number in µM; leave the unit off.

Which measured Cmax value corresponds to COc1ccc(/C=C\c2cc(OC)c(OC)c(OC)c2)cc1OP(=O)([O-])[O-].[Na+].[Na+] [CA4P, combretastatin A4 disodium phosphate] ?
95

* * *

Test: Biodistribution of 14C-CA4P following topical administration of a gel
Assay type: in vivo, New Zealand rabbits
Conditions: retina; 10% topical gel
observed-property: Cmax

Query (compound): COc1ccc(/C=C\c2cc(OC)c(OC)c(OC)c2)cc1OP(=O)([O-])[O-].[Na+].[Na+] [CA4P, combretastatin A4 disodium phosphate] ; field requested: Cmax
5.8 µM

* * *

Assay: Biodistribution of 14C-CA4P following intravitreal injection
Format: in vivo, New Zealand rabbits
Details: plasma; 10 mg/ml intravitreal
observed-property: Cmax (nM)
Write it as a number; the unit nM goes unstated.

Need Cmax of COc1ccc(/C=C\c2cc(OC)c(OC)c(OC)c2)cc1OP(=O)([O-])[O-].[Na+].[Na+] [CA4P, combretastatin A4 disodium phosphate] , thanks.
200

* * *

Experiment: Biodistribution of 14C-CA4P following intravitreal injection
Format: in vivo, New Zealand rabbits
Details: cornea; 100 mg/ml intravitreal
observed-property: Cmax (µM)
Please give a number only; it is taken to be in µM.

Can you share its Cmax? I mean this compound: COc1ccc(/C=C\c2cc(OC)c(OC)c(OC)c2)cc1OP(=O)([O-])[O-].[Na+].[Na+] [CA4P, combretastatin A4 disodium phosphate]
5870

* * *

Assay: Biodistribution of 14C-CA4P following topical administration of a gel
Type: in vivo, New Zealand rabbits
Conditions: cornea; 3% topical gel, 50 ul
observed-property: Cmax (µM)
Respond numerically; units are µM and should not be typed.

Requested read-out: Cmax. Entry: COc1ccc(/C=C\c2cc(OC)c(OC)c(OC)c2)cc1OP(=O)([O-])[O-].[Na+].[Na+] [CA4P, combretastatin A4 disodium phosphate]
118

* * *

Test: Biodistribution of 14C-CA4P following intravitreal injection
Format: in vivo, New Zealand rabbits
Settings: sclera; 10 mg/ml intravitreal
observed-property: Cmax (µM)
Respond with the bare value in µM.

Need Cmax of COc1ccc(/C=C\c2cc(OC)c(OC)c(OC)c2)cc1OP(=O)([O-])[O-].[Na+].[Na+] [CA4P, combretastatin A4 disodium phosphate] , thanks.
153

The measurements presented in this section are drawn from patent US20040229960A1.
